The reported measurements were obtained from patent US20200024322A1.

target: T1, human glucagon receptor (human, UniProt P47871 26-477); test: [125I]-Gcg competition SPA, hGcgR membranes
T1 construct: whole, on cells; also called hGcgR; GcgR
T1 sequence (P47871 26-477): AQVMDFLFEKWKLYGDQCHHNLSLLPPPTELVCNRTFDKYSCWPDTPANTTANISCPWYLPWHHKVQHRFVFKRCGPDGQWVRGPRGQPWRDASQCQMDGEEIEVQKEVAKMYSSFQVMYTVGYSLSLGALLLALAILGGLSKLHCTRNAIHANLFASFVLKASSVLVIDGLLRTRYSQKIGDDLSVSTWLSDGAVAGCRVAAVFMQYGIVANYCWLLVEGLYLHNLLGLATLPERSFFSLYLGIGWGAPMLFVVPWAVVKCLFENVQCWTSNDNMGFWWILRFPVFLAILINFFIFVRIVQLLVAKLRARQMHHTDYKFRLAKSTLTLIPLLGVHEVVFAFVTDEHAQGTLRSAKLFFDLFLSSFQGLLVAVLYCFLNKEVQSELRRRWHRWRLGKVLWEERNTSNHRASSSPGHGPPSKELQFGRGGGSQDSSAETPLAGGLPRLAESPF

binder	Ki / nM
YXEGTFTSDYSIXLDEKAQXAFIEYLIAGGPSSGAPPPS (Aib2; αMeL13; K17((2-[2-(2-Amino-ethoxy)-ethoxy]-acetyl)2-(γ-Glu)-CO-(CH2)18-CO2H); Aib20; C-terminal NH2) [Example 332]	397
YXEGTXTSDXSIXLDXKAQXAFIXXLIAGGPSSGAPPPS (Aib2; αMeF(2F)6; 4Pal10; αMeL13; Orn16; K17((2-[2-(2-Amino-ethoxy)-ethoxy]-acetyl)2-(εK)-CO-(CH2)18-CO2H); Aib20; D-Glu24; αMeY25; C-terminal NH2) [Example 252]	26
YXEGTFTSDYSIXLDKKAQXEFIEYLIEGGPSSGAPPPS (Aib2; αMeL13; K17((2-[2-(2-Amino-ethoxy)-ethoxy]-acetyl)2-(γ-Glu)-CO-(CH2)18-CO2H); Aib20; C-terminal NH2) [Example 333]	578
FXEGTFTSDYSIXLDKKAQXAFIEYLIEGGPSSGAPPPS (Aib2; αMeL13; K17((2-[2-(2-Amino-ethoxy)-ethoxy]-acetyl)2-(γ-Glu)-CO-(CH2)18-CO2H); Aib20; C-terminal NH2) [Example 327]	114
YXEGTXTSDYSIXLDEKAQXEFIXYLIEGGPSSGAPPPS (Aib2; αMeF(2F)6; αMeL13; K17((2-[2-(2-Amino-ethoxy)-ethoxy]-acetyl)2-(εK)-CO-(CH2)18-CO2H); Aib20; D-Glu24; C-terminal NH2) [Example 216]	45.2
YXEGTXTSDVSIXLDXKAQXAFIXXLIEGGPSSGAPPPS (Aib2; αMeF(2F)6; αMeL13; Orn16; K17((2-[2-(2-Amino-ethoxy)-ethoxy]-acetyl)2-(γ-Glu)-CO-(CH2)16-CO2H); Aib20; D-Glu24; αMeY25; C-terminal NH2) [Example 242]	95.9
